target: Hepatitis C virus serine protease, NS3/NS4A (Hepatitis C virus, UniProt A3EZI9+D2K2A8); assay: Inhibition of HCV serine protease NS3/NS4A in the presence of Zn; assay type: protein-complex assay, Hepacivirus hominis
Sequence (D2K2A8 whole entry): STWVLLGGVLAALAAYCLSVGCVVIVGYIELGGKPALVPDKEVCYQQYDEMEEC
Sequence (A3EZI9 whole entry): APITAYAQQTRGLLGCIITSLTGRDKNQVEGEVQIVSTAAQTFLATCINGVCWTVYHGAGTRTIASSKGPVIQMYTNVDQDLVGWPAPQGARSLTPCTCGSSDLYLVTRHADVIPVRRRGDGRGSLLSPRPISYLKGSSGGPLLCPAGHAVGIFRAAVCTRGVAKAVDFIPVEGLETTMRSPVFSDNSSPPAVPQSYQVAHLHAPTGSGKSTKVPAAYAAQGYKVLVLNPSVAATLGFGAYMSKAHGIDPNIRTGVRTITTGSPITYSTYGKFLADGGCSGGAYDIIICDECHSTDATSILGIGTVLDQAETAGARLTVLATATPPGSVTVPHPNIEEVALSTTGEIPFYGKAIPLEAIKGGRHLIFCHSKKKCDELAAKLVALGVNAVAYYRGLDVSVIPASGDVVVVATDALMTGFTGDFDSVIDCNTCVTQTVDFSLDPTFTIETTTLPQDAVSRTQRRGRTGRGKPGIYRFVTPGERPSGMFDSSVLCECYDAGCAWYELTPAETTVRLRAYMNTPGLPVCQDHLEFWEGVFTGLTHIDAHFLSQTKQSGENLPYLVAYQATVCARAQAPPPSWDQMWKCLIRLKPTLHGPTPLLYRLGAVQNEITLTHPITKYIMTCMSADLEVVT
Would you mind telling me the reported pKi of each entry?
pKi (log units): -log10 of the concentration in mol/L.

Prompt line: # query: pKi | item Cn1c(C(F)(F)c2nc3ccccc3[nH]2)nc2ccc(C(=O)NC(CP(=O)(O)O)C(=O)NC(CP(=O)(O)O)C(=O)O)cc21 (stereo unspecified) | system: Hepatitis C virus serine protease, NS3/NS4A (Hepatitis C virus, UniProt A3EZI9+D2K2A8)
Response line: 6.09

Prompt line: # query: pKi | item CC(c1nc2ccccc2[nH]1)c1nc2cccc(C(=O)NC(CP(=O)(O)O)C(=O)O)c2n1C (stereo unspecified) | system: Hepatitis C virus serine protease, NS3/NS4A (Hepatitis C virus, UniProt A3EZI9+D2K2A8)
Response line: 5.92

Prompt line: # query: pKi | item COP(=O)(O)CC(NC(=O)c1ccc2nc(Cc3nc4ccc(C(N)=O)cc4[nH]3)n(C)c2c1)C(=O)O (stereo unspecified) | system: Hepatitis C virus serine protease, NS3/NS4A (Hepatitis C virus, UniProt A3EZI9+D2K2A8)
Response line: 5.87

Prompt line: # query: pKi | item Cn1c(C(F)(F)c2nc3ccc(C(N)=O)cc3[nH]2)nc2ccc(C(=O)NC(CP(=O)(O)O)C(=O)O)cc21 (stereo unspecified) | system: Hepatitis C virus serine protease, NS3/NS4A (Hepatitis C virus, UniProt A3EZI9+D2K2A8)
Response line: 5.92

Prompt line: # query: pKi | item Cn1c(C(F)c2nc3c(F)cc(F)cc3[nH]2)nc2ccc(C(=O)NC(CP(=O)(O)O)C(=O)O)cc21 (stereo unspecified) | system: Hepatitis C virus serine protease, NS3/NS4A (Hepatitis C virus, UniProt A3EZI9+D2K2A8)
Response line: 6.18

Prompt line: # query: pKi | item Cn1c(C(F)(F)c2nc3cc(F)ccc3[nH]2)nc2ccc(C(=O)NC(CP(=O)(O)O)C(=O)O)cc21 (stereo unspecified) | system: Hepatitis C virus serine protease, NS3/NS4A (Hepatitis C virus, UniProt A3EZI9+D2K2A8)
Response line: 5.89
